# credit: the supplement of paper PMC6897291

Collected growth inhibition by drug alone values appear next to each entry.
# System: RIVA
# experiment description: growth inhibition by drug alone (1 - RLU/untreated control) (fraction); higher = stronger inhibition
# particulars: 100 nM; time (day): 4; 177Lu-lilotomab satetraxetan 0 ug/ml
Number, no unit, nothing else.

compound	system tested	metric	readout number
CS(=O)(=O)c1ccc(C(=O)Nc2ccc(Cl)c(-c3ccccn3)c2)c(Cl)c1 [Vismodegib (GDC-0449)]	RIVA	growth inhibition by drug alone	-0.16
CC(C)C[C@H](NC(=O)CNC(=O)c1cc(Cl)ccc1Cl)B1OC(=O)C(CC(=O)O)(CC(=O)O)O1	RIVA	growth inhibition by drug alone	0.4

Task item: Name the reported growth inhibition by drug alone value associated with the compound CCOc1cc(C(=O)Nc2ccc(Cl)c(-c3nc4ccccc4[nH]3)c2)cc(OCC)c1OCC
Reply: 0.248

Task item: And what about the compound C[S+]([O-])c1ccc(-c2nc(-c3ccc(F)cc3)c(-c3ccncc3)[nH]2)cc1 (centres undefined) ?
Reply: -0.0437

====

# System: U-2932
# experiment description: growth inhibition by drug alone (1 - RLU/untreated control) (fraction); higher = stronger inhibition
# particulars: 10 nM; time (day): 5; 177Lu-lilotomab satetraxetan 0 ug/ml
Classify as follows. Reported growth inhibition by drug alone greater than or equal to -0.03: true. Reported growth inhibition by drug alone below: false.

Would you please look over these solved cases?
compound	label class
O=C(/C=C/C#Cc1cccc(NS(=O)(=O)c2ccccc2)c1)NO [Oxamflatin]	true
COc1cc2nccc(Oc3ccc(NC(=O)NC4CC4)c(Cl)c3)c2cc1C(N)=O [E7080 (Lenvatinib)]	true
CS(=O)(=O)c1cccc(CNc2nc(Nc3ccc4c(c3)CCC(=O)N4)ncc2C(F)(F)F)c1	true
Cc1cc(Nc2cc(N3CCN(C)CC3)nc(/C=C/c3ccccc3)n2)n[nH]1	false
O=C(O)c1ccc(-c2c[nH]c3ncc(-c4ccccc4)cc23)cc1C1CCCC1	false

Task item: Determine whether this compound has growth inhibition by drug alone no lower than -0.03: O=C(c1cc(Cc2n[nH]c(=O)c3ccccc23)ccc1F)N1CCN(C(=O)C2CC2)CC1 [Olaparib (AZD2281)]
Reply: true

Task item: Entry to check: COc1cc([C@@H]2c3cc4c(cc3[C@@H](O[C@@H]3O[C@@H]5CO[C@@H](C)O[C@H]5[C@H](O)[C@H]3O)[C@H]3COC(=O)[C@H]23)OCO4)cc(OC)c1O [Etoposide (VP-16)]
Reply: false

====

Each entry below carries its reported growth inhibition by drug alone.
# System: U-2932
# experiment description: growth inhibition by drug alone (1 - RLU/untreated control) (fraction); higher = stronger inhibition
# particulars: 1000 nM; time (day): 4; 177Lu-lilotomab satetraxetan 0 ug/ml
Counter-ions that a name gives are not always drawn.
// keep it numeric: no unit symbol after the value

molecule	growth inhibition by drug alone
c1ccc(-c2nn3c(c2-c2ccnc4cc(OCCN5CCOCC5)ccc24)CCC3)nc1	-0.0245
CN(C)c1nc(N(C)C)nc(N(C)C)n1	-0.0758
COc1c(C)c2c(c(O)c1C/C=C(\C)CCC(=O)O)C(=O)OC2 [Mycophenolic (Mycophenolate)]	0.83
COc1cccc2c1C(=O)c1c(O)c3c(c(O)c1C2=O)C[C@@](O)(C(=O)CO)C[C@@H]3O[C@H]1C[C@H](N)[C@H](O)[C@H](C)O1	0.983
CS(=O)(=O)N1CCN(Cc2cc3nc(-c4cccc5[nH]ncc45)nc(N4CCOCC4)c3s2)CC1	0.786

Task item: Entry O=c1cc(N2CCOCC2)oc2c(-c3cccc4c3sc3ccccc34)cccc12 : reported growth inhibition by drug alone = ?
Reply: 0.176

Task item: What about C[N+](C)([O-])CCNc1ccc(NCC[N+](C)(C)[O-])c2c1C(=O)c1c(O)ccc(O)c1C2=O [Banoxantrone dihydrochloride] ?
Reply: -0.0493

Task item: For C[S+]([O-])c1ccc(-c2nc(-c3ccc(F)cc3)c(-c3ccncc3)[nH]2)cc1 (configuration not stated) then?
Reply: 0.396

Task item: What do we get for O=c1c(O)c(-c2ccc(O)c(O)c2)oc2cc(O)cc(O)c12 [Quercetin (Sophoretin)] ?
Reply: 0.0523

Task item: How about this molecule: O=C(c1ccc(OCCN2CCCCC2)cc1)c1c(-c2ccc(O)cc2)sc2cc(O)ccc12 [Evista (Raloxifene Hydrochloride)]
Reply: -0.0257

Task item: Follow-up entry: Cc1[nH]c2ccccc2c1CCNCc1ccc(/C=C/C(=O)NO)cc1
Reply: 0.982
